# EXPERIMENT DESCRIPTION: yeast display, Sf9 membrane polyspecificity reagent, FACS + sequencing; frameworks hold sequencing errors
PARAMETER MEASURED: polyreactivity (PSR sort gate)

1) QVQLVESRGGLVQAGGSLRLSCAASGFILSWYAMGWYRQARGKERELVAAISTSGDSTYYADSVKGRFTISRDNAKNTVYVQMNRLKPEDTAVYYCAAVKVSAGTSRGYYYWGPGTQVTVSS; high polyreactivity
2) QVQLVESGGGLVQAGGSLRLSCAASGSIFGIYAMGWYRPAPGKERELVATINSRGTTNYADSVKGRFTISRDNAKNTVYLQMNSLKPEDTAVYYCAARFSTYRGKRKGYEYWGQGTQVTVSS; high polyreactivity
